- System: SH-SY5Y
- experimental_details: Toxicity in retinoic acid-differentiated human SH-SY5Y cells assessed as effect on cell morphology at 10 uM after 24 hrs by trypan blue exclusion method
- Type: cell-based
metric: Activity

Worked set:
CO[C@@H]1[C@@H](O)[C@@H](O)[C@H](Oc2ccc3cc(NC(=O)CCCCCCC(=O)Nc4cc5ccc(O[C@@H]6OC(C)(C)[C@H](OC)[C@@H](O)[C@H]6O)c(C)c5oc4=O)c(=O)oc3c2C)OC1(C)C | Non-toxic
COC1=C2C[C@@H](C)C[C@H](OC)[C@H](O)[C@@H](C)/C=C(\C)[C@H](OC(N)=O)[C@@H](OC)/C=C\C=C(/C)C(=O)NC(=CC1=O)C2=O [GELDANAMYCIN] | Toxic
CO[C@@H]1[C@@H](OC(N)=O)[C@@H](O)[C@H](Oc2ccc3c(O)c(NC(=O)c4ccc(O)c(CC=C(C)C)c4)c(=O)oc3c2C)OC1(C)C [NOVOBIOCIN] | Toxic
CO[C@@H]1[C@@H](O)[C@@H](O)[C@H](Oc2ccc3cc(NC(C)=O)c(=O)oc3c2)OC1(C)C | Non-toxic

Let us examine a further case.
Answer with the recorded Activity of CO[C@@H]1[C@@H](O)[C@@H](O)[C@H](Oc2ccc3cc(NC(C)=O)c(=O)oc3c2C)OC1(C)C only.
Non-toxic
